- Tested on: HB3
- protocol-notes: qHTS profiling for inhibitors of Plasmodium falciparum proliferation (AID 504749); note: nearly all actives have a fitted effect of over 60% in size; note: potency is the fitted concentration of half-maximal effect
- measurement-conditions: P. falciparum in erythrocytes, SYBR Green DNA, 72 h; series mostly up to 28.7 µM
Records with an inconclusive call do not appear. The source made the active and inactive calls. Calls come from the whole dose curve; as a rule, active = well fitted inhibition curve with a large enough effect; inconclusive = small, poorly fitted or top-dose-only effect; inactive = flat fitted curve, though single readings scatter.
experimental-endpoint: Potency

- molecule: "O=C(CCCN1CCN2CCCC2C1)c1ccc(F)cc1 (centres undefined)"
  experimental-endpoint: "Potency"
  reading: "inactive"
- molecule: "C=CC[C@@H]1/C=C(\\C)C[C@H](C)C[C@H](OC)[C@H]2O[C@@](O)(C(=O)C(=O)N3CCCC[C@H]3C(=O)O[C@H](/C(C)=C/[C@@H]3CC[C@@H](O)[C@H](OC)C3)[C@H](C)[C@@H](O)CC1=O)[C@H](C)C[C@@H]2OC"
  experimental-endpoint: "Potency"
  reading: "1000 nM (active)"
- molecule: "CC1CCC(NC(=O)N(CCCl)N=O)CC1 (centres undefined)"
  experimental-endpoint: "Potency"
  reading: "inactive"
- molecule: "FC(F)(F)C(F)(F)C(F)(F)C(F)(F)C(F)(F)F"
  experimental-endpoint: "Potency"
  reading: "inactive"
- molecule: "CCCCCCCCCCCC(=O)OCC(O)CO (centres undefined)"
  experimental-endpoint: "Potency"
  reading: "inactive"
- molecule: "CC(C)CCCC(C)NC(C)C (centres undefined)"
  experimental-endpoint: "Potency"
  reading: "inactive"
- molecule: "O=C(NNCS(=O)(=O)O)c1ccncc1"
  experimental-endpoint: "Potency"
  reading: "inactive"
- molecule: "Cc1cccc(C)c1NC(=O)NC1=CCCN1C"
  experimental-endpoint: "Potency"
  reading: "inactive"
- molecule: "O=C1[O][Bi][O]c2ccccc21"
  experimental-endpoint: "Potency"
  reading: "inactive"
- molecule: "CN[C@@H]1[C@H](O[C@H]2[C@H](O[C@H]3[C@H](O)[C@@H](O)[C@H](N=C(N)N)[C@@H](O)[C@@H]3N=C(N)N)O[C@@H](C)[C@]2(O)C=O)O[C@@H](CO)[C@H](O)[C@H]1O"
  experimental-endpoint: "Potency"
  reading: "inactive"
- molecule: "O=C(O)c1ccc(NC(=O)[C@H](Cc2ccc(O)cc2)NC(=O)c2ccccc2)cc1"
  experimental-endpoint: "Potency"
  reading: "inactive"
- molecule: "CC1=C(/C=C/C(C)=C/C=C/C(C)=C/C(=O)Oc2c(C)c(C)c3c(c2C)CC[C@@](C)(CCC[C@H](C)CCC[C@H](C)CCCC(C)C)O3)C(C)(C)CCC1"
  experimental-endpoint: "Potency"
  reading: "inactive"
- molecule: "CCOC(=O)c1cc(-c2ccccc2)nc2ccc(C)cc12"
  experimental-endpoint: "Potency"
  reading: "inactive"
- molecule: "COC1=C(OC)C(=O)C(C/C=C(\\C)CC/C=C(\\C)CC/C=C(\\C)CC/C=C(\\C)CC/C=C(\\C)CC/C=C(\\C)CC/C=C(\\C)CC/C=C(\\C)CC/C=C(\\C)CCC=C(C)C)=C(C)C1=O"
  experimental-endpoint: "Potency"
  reading: "inactive"
- molecule: "Nc1ccc(N=Nc2ccccc2)c(N)n1"
  experimental-endpoint: "Potency"
  reading: "inactive"
- molecule: "CN(Cc1ccccc1)Cc1ccccc1"
  experimental-endpoint: "Potency"
  reading: "inactive"
- molecule: "F[Si-2](F)(F)(F)(F)F"
  experimental-endpoint: "Potency"
  reading: "inactive"
- molecule: "N#Cc1ccc2c(c1)N(CCCN1CCC(O)CC1)c1ccccc1S2"
  experimental-endpoint: "Potency"
  reading: "inactive"
- molecule: "Cc1ncc(C[n+]2csc(CCO)c2C)c(N)n1"
  experimental-endpoint: "Potency"
  reading: "inactive"
- molecule: "CCCCC(CC)COS(=O)(=O)O (centres undefined)"
  experimental-endpoint: "Potency"
  reading: "inactive"
- molecule: "C[C@@](Cc1ccc(O)c(O)c1)(NN)C(=O)O"
  experimental-endpoint: "Potency"
  reading: "inactive"
- molecule: "CC1CC(OC(=O)C(O)c2ccccc2)CC(C)(C)C1 (centres undefined)"
  experimental-endpoint: "Potency"
  reading: "inactive"
- molecule: "CC(CNC(=O)c1cccnc1)NC(=O)c1cccnc1 (centres undefined)"
  experimental-endpoint: "Potency"
  reading: "inactive"
- molecule: "C=CC(C)(O)CC/C=C(\\C)CCC=C(C)C (centres undefined)"
  experimental-endpoint: "Potency"
  reading: "inactive"
- molecule: "O=C(O)Cc1cc(I)c(Oc2ccc(O)c(I)c2)c(I)c1"
  experimental-endpoint: "Potency"
  reading: "inactive"
- molecule: "O=C1c2ccccc2C(=O)C1c1ccc(F)cc1"
  experimental-endpoint: "Potency"
  reading: "inactive"
- molecule: "CC(C)(C)CC(C)(C)c1cc(Cc2cc(C(C)(C)CC(C)(C)C)cc(-n3nc4ccccc4n3)c2O)c(O)c(-n2nc3ccccc3n2)c1"
  experimental-endpoint: "Potency"
  reading: "inactive"
- molecule: "CCc1ncnc2cc(OC)c(OC)cc12"
  experimental-endpoint: "Potency"
  reading: "inactive"
- molecule: "OB(O)O"
  experimental-endpoint: "Potency"
  reading: "inactive"
- molecule: "CCC(Cc1c(I)cc(I)c(O)c1I)C(=O)O (centres undefined)"
  experimental-endpoint: "Potency"
  reading: "inactive"
- molecule: "O=c1[nH]c(=O)n([C@H]2C[C@H](O)[C@@H](CO)O2)cc1/C=C/Br"
  experimental-endpoint: "Potency"
  reading: "inactive"
- molecule: "CC(CC=O)CCCC(C)(C)O (centres undefined)"
  experimental-endpoint: "Potency"
  reading: "inactive"
- molecule: "COc1cc(NCCCC(C)N)c2ncccc2c1 (centres undefined)"
  experimental-endpoint: "Potency"
  reading: "3550 nM (active)"
- molecule: "CCCCCCCCCCCCCCCCCC(=O)OC[C@@H](O)[C@H]1OC[C@H](O)[C@H]1O"
  experimental-endpoint: "Potency"
  reading: "inactive"

----------
- protocol-notes: Cell Viability - Renal Proximal Tubule (AID 545);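 note: cells exposed to compound for 40 hours; 0% = DMSO only and -100% = 100 µM tamoxifen; nearly all actives have a fitted effect of over 40% in size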
- measurement-conditions: renal proximal tubule cells viability, primary cells of rat origin; at 91.7 µM (top of the series)
Records with an inconclusive call do not appear.
experimental-endpoint: activity change, negative = cytotoxicity (%)

- compound: "Cc1ccc(S(=O)(=O)O)cc1C"
  experimental-endpoint: "activity change, negative = cytotoxicity"
  unit-tag: "%"
  reading: -15.2
- compound: "OCl"
  experimental-endpoint: "activity change, negative = cytotoxicity"
  unit-tag: "%"
  reading: 2.44
- compound: "OCc1ccccc1"
  experimental-endpoint: "activity change, negative = cytotoxicity"
  unit-tag: "%"
  reading: -2.17
- compound: "C=C1C(CCl)(CCl)C2(Cl)C(Cl)C(Cl)C1(Cl)C2(Cl)Cl (configuration not stated)"
  experimental-endpoint: "activity change, negative = cytotoxicity"
  unit-tag: "%"
  reading: -88.3
- compound: "C[C@H]1O[C@@H](O[C@H]2[C@@H](O)C[C@H](O[C@H]3[C@@H](O)C[C@H](O[C@H]4CC[C@@]5(C)[C@H](CC[C@@H]6[C@@H]5C[C@@H](O)[C@]5(C)[C@@H](C7=CC(=O)OC7)CC[C@]65O)C4)O[C@@H]3C)O[C@@H]2C)C[C@H](O)[C@@H]1O"
  experimental-endpoint: "activity change, negative = cytotoxicity"
  unit-tag: "%"
  reading: -10.1
- compound: "CCOC(C)OCC"
  experimental-endpoint: "activity change, negative = cytotoxicity"
  unit-tag: "%"
  reading: -8.55
- compound: "NC(N)=O"
  experimental-endpoint: "activity change, negative = cytotoxicity"
  unit-tag: "%"
  reading: -9.08
- compound: "COC(=O)c1ccccc1O"
  experimental-endpoint: "activity change, negative = cytotoxicity"
  unit-tag: "%"
  reading: -0.7
- compound: "C/C=C/C=C/C(=O)O"
  experimental-endpoint: "activity change, negative = cytotoxicity"
  unit-tag: "%"
  reading: -2.27
- compound: "CO/N=C(/C(=O)N[C@@H]1C(=O)N2C(C(=O)O)=C(COC(N)=O)CS[C@H]12)c1ccco1"
  experimental-endpoint: "activity change, negative = cytotoxicity"
  unit-tag: "%"
  reading: 4.36
- compound: "OB(O)O"
  experimental-endpoint: "activity change, negative = cytotoxicity"
  unit-tag: "%"
  reading: -6.9
- compound: "Nc1ncnc2c1ncn2[C@H]1CC[C@@H](CO)O1"
  experimental-endpoint: "activity change, negative = cytotoxicity"
  unit-tag: "%"
  reading: 2.7
- compound: "CCCCC"
  experimental-endpoint: "activity change, negative = cytotoxicity"
  unit-tag: "%"
  reading: 5.08
- compound: "C[C@H](CCC(=O)O)[C@H]1CC[C@H]2[C@@H]3CC[C@@H]4C[C@H](O)CC[C@]4(C)[C@H]3C[C@H](O)[C@]12C"
  experimental-endpoint: "activity change, negative = cytotoxicity"
  unit-tag: "%"
  reading: -13.4
- compound: "O=c1n(CC2CO2)c(=O)n(CC2CO2)c(=O)n1CC1CO1 (configuration not stated)"
  experimental-endpoint: "activity change, negative = cytotoxicity"
  unit-tag: "%"
  reading: -90
- compound: "[O-][N+](=Nc1ccccc1)c1ccccc1"
  experimental-endpoint: "activity change, negative = cytotoxicity"
  unit-tag: "%"
  reading: -0.723
- compound: "CC1=CC(=O)NS(=O)(=O)O1"
  experimental-endpoint: "activity change, negative = cytotoxicity"
  unit-tag: "%"
  reading: -8.28
